src = the supplement of paper PMC10567573

Would you kindly list protein stability index for each of these variants?
B1: TOR1AIP2 (parent)
chain: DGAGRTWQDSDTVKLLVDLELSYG

# Variants of: B1
# Experimental Protocol: protein stability index of a GFP-peptide fusion (GPS, HEK-293T) (PSI 1-6); higher = more stable;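 further: lentivirally expressed fusions sorted by FACS into six bins by GFP to DsRed ratio, PSI derived from sequencing read proportions per bin multiplied by bin number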
# Recorded Conditions: c terminus: a fixed tail appended
Numbers only.

// below: answered variants
G2Y    2.53
S10P    2.36
L15H    3.54

For every record below, what is its protein stability index?
1. W7N
2. A3M
3. G24K
4. T12K
5. W7G

Result:
4.06
2.51
2.88
2.6
3.22

For every record below, what is its protein stability index?
1. L21Q
2. L21E
3. V13E
4. T6E
5. D1E
6. L21Y

Result:
[2.35, 1.62, 3.95, 2.62, 1.69, 1.62]

Ask: GET /values?readout=protein stability index&item= `T6D`
Result: 2.37
